- experimental.target: CaFus1
- test.method.notes: SPOT peptide array binding signal intensity (averaged, normalized) (arbitrary units (background-subtracted, floor 0; scale differs between SH3 domains)); higher = stronger binding of the SH3 domain to the peptide
Is SPOT peptide array binding signal intensity at least 1000? Then Yes. If not, No.

1) QTREPNEPPPPSPAM; No
2) ITHRLRISIPGITGR; Yes
3) GLRRARYKFPGQQKI; No
4) IKTRSVPKIPSIESV; No

Please look at the following binder next.
Query :: Can "PIVPSSPAPPLPLSG" be said to have SPOT peptide array binding signal intensity at or above 1000?
Result :: No
